B1: glmS ribozyme (parent)
chain: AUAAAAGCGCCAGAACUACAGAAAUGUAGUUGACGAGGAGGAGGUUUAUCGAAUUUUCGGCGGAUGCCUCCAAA

- Variants of: B1
- assay.protocol: self-cleavage kobs at 160 uM GlcN6P; higher = faster cleavage; RNA array
- condition.summary: with glucosamine-6-phosphate
This sample holds only a part of the variants without activity.
metric: self-cleavage kobs at 160 uM GlcN6P

Consider the reported self-cleavage kobs at 160 uM GlcN6P for these variants:
variant: U45G U54C
metric: self-cleavage kobs at 160 uM GlcN6P
result: 0.000851 s⁻¹
--
variant: A12C C67A
metric: self-cleavage kobs at 160 uM GlcN6P
result: 0.000456 s⁻¹
--
variant: G13C A39C A53C
metric: self-cleavage kobs at 160 uM GlcN6P
result: < 1e-05 s⁻¹

Using the record for A48C G51A , report its self-cleavage kobs at 160 uM GlcN6P.
< 1e-05 s⁻¹

Using the record for G63C U65G , report its self-cleavage kobs at 160 uM GlcN6P.
< 1e-05 s⁻¹

Using the record for C8U U54A , report its self-cleavage kobs at 160 uM GlcN6P.
< 1e-05 s⁻¹

Using the record for G44A G59C , report its self-cleavage kobs at 160 uM GlcN6P.
< 1e-05 s⁻¹

Using the record for A12U G60U , report its self-cleavage kobs at 160 uM GlcN6P.
< 1e-05 s⁻¹

Using the record for U30A U31C , report its self-cleavage kobs at 160 uM GlcN6P.
0.000203 s⁻¹

Using the record for A6C A12C A36C G43A G51U C70G , report its self-cleavage kobs at 160 uM GlcN6P.
< 1e-05 s⁻¹

Using the record for C10U A42G A53U , report its self-cleavage kobs at 160 uM GlcN6P.
< 1e-05 s⁻¹

Using the record for A12U U69G , report its self-cleavage kobs at 160 uM GlcN6P.
2.7e-05 s⁻¹

Using the record for A14U U56A , report its self-cleavage kobs at 160 uM GlcN6P.
0.00029 s⁻¹

Using the record for U47G C68A , report its self-cleavage kobs at 160 uM GlcN6P.
4.97e-05 s⁻¹

Using the record for A12G G38A G66U , report its self-cleavage kobs at 160 uM GlcN6P.
< 1e-05 s⁻¹

Using the record for U45G U57A G59A G62U , report its self-cleavage kobs at 160 uM GlcN6P.
< 1e-05 s⁻¹

Using the record for G35U G62C , report its self-cleavage kobs at 160 uM GlcN6P.
< 1e-05 s⁻¹

Using the record for A33U G38A A39G , report its self-cleavage kobs at 160 uM GlcN6P.
< 1e-05 s⁻¹

Using the record for G9A G44C C68A , report its self-cleavage kobs at 160 uM GlcN6P.
< 1e-05 s⁻¹

Using the record for A39U G60A , report its self-cleavage kobs at 160 uM GlcN6P.
< 1e-05 s⁻¹

Using the record for A12C G29C A52C A64C , report its self-cleavage kobs at 160 uM GlcN6P.
< 1e-05 s⁻¹

Using the record for C16A U47G , report its self-cleavage kobs at 160 uM GlcN6P.
6.15e-05 s⁻¹

Using the record for U31A U55A , report its self-cleavage kobs at 160 uM GlcN6P.
0.000953 s⁻¹

Using the record for A6C C8G G35C C58U C67G , report its self-cleavage kobs at 160 uM GlcN6P.
< 1e-05 s⁻¹

Using the record for A6C G44C , report its self-cleavage kobs at 160 uM GlcN6P.
< 1e-05 s⁻¹

Hello, the source for this data is the supplement of paper PMC7125110, in case you need it.
